Assay: Inhibition of wild type EGFR in mouse BAF3 cells assessed as reduction in cell proliferation incubated for 72 hrs by Celltiter-Glo luminescent cell viability assay
Flag rule - IC50 less than 2 µM flags TRUE; the remaining entries get FALSE.

Inquiry: In plain terms, does CC(C)(O)Cn1/c(=N/C(=O)c2ccnc(-c3ccccc3)c2)[nH]c2ccccc21 come in under 2 µM for IC50?
Reply text: FALSE

Inquiry: In plain terms, does Cc1cc2cc(n1)-c1cnn(C)c1OCCC[C@@H](C)CN1/C(=N/C2=O)Nc2ccccc21 come in under 2 µM for IC50?
Reply text: TRUE

Inquiry: In plain terms, does Cn1cc(-c2cc(C(=O)/N=c3\[nH]c4ccccc4n3CC(C)(C)O)ccn2)cn1 come in under 2 µM for IC50?
Reply text: FALSE

Inquiry: In plain terms, does Cn1ncc2c1OCCCCCN1/C(=N/C(=O)c3cc(F)nc-2c3)Nc2ccccc21 come in under 2 µM for IC50?
Reply text: TRUE

Inquiry: In plain terms, does COc1ccncc1-c1cc(C(=O)/N=c2\[nH]c3ccccc3n2CC(C)(C)O)ccn1 come in under 2 µM for IC50?
Reply text: TRUE

Inquiry: In plain terms, does O=C1/N=C2\Nc3ccccc3N2CCCCCOc2ccccc2-c2cc1ccn2 come in under 2 µM for IC50?
Reply text: TRUE

Inquiry: In plain terms, does Cc1cc2cc(n1)-c1cnn(C)c1OCCCCCN1/C(=N/C2=O)Nc2ccccc21 come in under 2 µM for IC50?
Reply text: FALSE
